Reported cell count values follow for various compounds
assay: modulators of mitochondrial supercomplex assembly, cell-based, luminescence, Hoechst nuclei count (AID 1645838); details: Cells, luminescence/Hoechst cell count ratio, supercomplex reporter; measured here: cell number, Hoechst nuclei count; library stock concentration (final well concentration not given) 80 uM;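 further: control cybrid cells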
The whole screen tested about 2,000 compounds, of which about 100 (5%) were called active. What follows is part of a selection rich in actives, with near analogues and random picks from the rest.

compound	cell count
Cc1sc2c(c1C)C(c1ccc(Cl)cc1)=NC(CC(=O)Nc1ccc(O)cc1)c1nnc(C)n1-2 (centres undefined)	5230
CS(=O)CCCCN=C=S (centres undefined)	6580
COC1C(OC(=O)NC(=O)CCl)CC[C@]2(CO2)[C@@H]1[C@@]1(C)OC1CC=C(C)C (some centres undefined)	3980
NCCc1c(Cl)cccc1Cl	5290

* * *

assay: modulators of mitochondrial supercomplex assembly, cell-based, luminescence, Hoechst nuclei count (AID 1645838); details: Cells, luminescence/Hoechst cell count ratio, supercomplex reporter; measured here: cell number, Hoechst nuclei count; library stock concentration (final well concentration not given) 10 mM;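 further: control cybrid cells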
Hit rate of the full screen: of about 2,000 compounds, about 100 (5%) were called active. The entries come from a sample that favours actives as a whole.

compound	cell count
Cc1sc2c(c1C)C(c1ccc(Cl)cc1)=NC(CC(=O)Nc1ccc(O)cc1)c1nnc(C)n1-2 (stereo not drawn)	2330
NCCc1c(Cl)cccc1Cl	5250
C[N@@+]1(CC2CC2)CC[C@]23c4c5ccc(O)c4OC2C(=O)CC[C@@]3(O)C1C5 (stereo partly drawn)	4440
CC1CNCCc2ccc(Cl)cc21 (stereo not drawn)	5720
NC(=NCCCC(N)C(=O)O)N[N+](=O)[O-] (stereo not drawn)	4490
Cc1nc(-c2ccc(-c3ccc(C(=O)N4CCc5cc6c(cc54)C4(CCN(C)CC4)CO6)cc3)c(C)c2)no1	1770
Cc1sc2c(c1C)C(c1ccc(Cl)cc1)=NC(CC(=O)OC(C)(C)C)c1nnc(C)n1-2 (stereo not drawn)	2860
COc1nc(C)nc(NC(=O)NS(=O)(=O)c2ccccc2Cl)n1	6980

* * *

assay: modulators of mitochondrial supercomplex assembly, cell-based, luminescence, Hoechst nuclei count (AID 1645838); details: Cells, luminescence/Hoechst cell count ratio, supercomplex reporter; library stock concentration (final well concentration not given) 80 uM; stronger effect = higher value;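 further: control cybrid cells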;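 on z-score: higher means more mitochondrial supercomplex formation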
In all, about 2,000 compounds went through this assay and about 100 (5%) were called active. The sample as a whole holds a higher share of actives than the screen did.

compound	z-score
Cc1nc(-c2ccc(-c3ccc(C(=O)N4CCc5cc6c(cc54)C4(CCN(C)CC4)CO6)cc3)c(C)c2)no1	-0.255
NCCc1c(Cl)cccc1Cl	0.124
Cc1sc2c(c1C)C(c1ccc(Cl)cc1)=NC(CC(=O)Nc1ccc(O)cc1)c1nnc(C)n1-2 (stereo not given)	1.4
C[N@@+]1(CC2CC2)CC[C@]23c4c5ccc(O)c4OC2C(=O)CC[C@@]3(O)C1C5 (stereo not given in full)	0.853
CS(=O)CCCCN=C=S (stereo not given)	-0.41

* * *

experiment: modulators of mitochondrial supercomplex assembly, cell-based, luminescence, Hoechst nuclei count (AID 1645838); conditions: Cells, luminescence/Hoechst cell count ratio, supercomplex reporter; measured here: cell number, Hoechst nuclei count; library stock concentration (final well concentration not given) 400 uM;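 further: control cybrid cells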
The whole screen tested about 2,000 compounds, of which about 100 (5%) were called active. For the sample, actives were picked, then their nearest neighbours and some compounds at random.
Reported cell count values follow for various compounds

compound	cell count
CC1CNCCc2ccc(Cl)cc21 (centres undefined)	5570
Cc1nc(-c2ccc(-c3ccc(C(=O)N4CCc5cc6c(cc54)C4(CCN(C)CC4)CO6)cc3)c(C)c2)no1	5160
CS(=O)CCCCN=C=S (centres undefined)	6460
COC1C(OC(=O)NC(=O)CCl)CC[C@]2(CO2)[C@@H]1[C@@]1(C)OC1CC=C(C)C (some centres undefined)	3760
